Task for the reader: assign each of the following molecules its reported inhibition.
- target under test: Tyrosine-protein kinase ITK/TSK (Homo sapiens)
- Sequence (whole entry): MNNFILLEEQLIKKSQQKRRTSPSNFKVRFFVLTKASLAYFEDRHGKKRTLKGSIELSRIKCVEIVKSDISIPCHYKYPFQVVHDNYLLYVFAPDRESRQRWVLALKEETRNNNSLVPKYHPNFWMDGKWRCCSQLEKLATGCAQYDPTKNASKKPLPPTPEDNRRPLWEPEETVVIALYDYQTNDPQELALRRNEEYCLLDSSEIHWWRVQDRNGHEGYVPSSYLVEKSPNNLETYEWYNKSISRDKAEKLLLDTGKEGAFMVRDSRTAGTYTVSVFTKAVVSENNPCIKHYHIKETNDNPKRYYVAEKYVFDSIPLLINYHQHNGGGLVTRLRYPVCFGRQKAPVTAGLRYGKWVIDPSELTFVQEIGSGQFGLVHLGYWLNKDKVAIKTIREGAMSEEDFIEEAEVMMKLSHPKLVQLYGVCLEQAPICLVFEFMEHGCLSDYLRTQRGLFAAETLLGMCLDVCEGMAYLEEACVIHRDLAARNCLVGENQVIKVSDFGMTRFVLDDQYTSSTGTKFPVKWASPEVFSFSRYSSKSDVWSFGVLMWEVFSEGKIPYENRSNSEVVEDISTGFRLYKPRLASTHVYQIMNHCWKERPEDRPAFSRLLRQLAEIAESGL
- assay conditions: at 0.1 µM
Please give a number only; it is taken to be in %.

Recorded inhibition for CC1=C(C(=O)Nc2ccc3[nH]nc(C)c3c2)C(c2ccc(C(F)(F)F)cc2)CC(=O)N1 (stereo not given) with Tyrosine-protein kinase ITK/TSK (Homo sapiens), please?
1.81

Short answer please: inhibition, Tyrosine-protein kinase ITK/TSK (Homo sapiens), entry CCS(=O)(=O)c1ccc(OC)c(Nc2ncc(-c3cccc(F)c3)o2)c1
2.16

Entry Fc1cccc(COc2ccc(Nc3ncncc3C#Cc3ccccc3)cc2Cl)c1 , system Tyrosine-protein kinase ITK/TSK (Homo sapiens): what inhibition was measured?
1.58

Recorded inhibition for Cn1c(-c2nonc2N)nc2cnccc21 with Tyrosine-protein kinase ITK/TSK (Homo sapiens), please?
1.03

Test system Tyrosine-protein kinase ITK/TSK (Homo sapiens); read-out inhibition; what value for CNC(=O)c1cncc(/C=C/c2ccccc2C)c1 ?
1.32

Tyrosine-protein kinase ITK/TSK (Homo sapiens) / inhibition / O=C1Nc2ccccc2/C1=C1\CCc2cc(O)ccc21 : value?
3.68

// map CCN1CCC(C(=O)Nc2n[nH]c3nnc(-c4cccc(F)c4F)cc23)CC1 to recorded inhibition (system: Tyrosine-protein kinase ITK/TSK (Homo sapiens))
0.47

What value of inhibition on Tyrosine-protein kinase ITK/TSK (Homo sapiens) does COC(=O)Nc1nc2ccc(Oc3ccc(NC(=O)Nc4cc(C(F)(F)F)ccc4F)cc3)cc2s1 have?
1.03

Write down the reported inhibition of NS(=O)(=O)c1cccc(N/C=C2\C(=O)Nc3ccccc32)c1 , test system: Tyrosine-protein kinase ITK/TSK (Homo sapiens).
1.13

Tyrosine-protein kinase ITK/TSK (Homo sapiens) / inhibition / COc1cc(Nc2ncc(-c3ccccc3)o2)cc(OC)c1 : value?
-0.12

// map FC(F)(F)CNc1nccc(-c2cnn3ncccc23)n1 to recorded inhibition (system: Tyrosine-protein kinase ITK/TSK (Homo sapiens))
-0.07

Request - read-out inhibition | tested on Tyrosine-protein kinase ITK/TSK (Homo sapiens) | molecule COc1ccc2ncn(-c3cc(O[C@H](C)c4ccccc4C(F)(F)F)c(C(N)=O)s3)c2c1
0.33

// fetch Tyrosine-protein kinase ITK/TSK (Homo sapiens) inhibition for Cc1c2ccc(N(C)c3ccnc(Nc4cccc(S(N)(=O)=O)c4)n3)cc2nn1C
-1.73

Entry COc1cc(N2CCN(C(C)C)CC2)ccc1Nc1nc(Nc2cccc(F)c2C(=O)O)c2cc[nH]c2n1 , system Tyrosine-protein kinase ITK/TSK (Homo sapiens): what inhibition was measured?;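 also: mean percent inhibition of ITK from the GSK PKIS screen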
1.35

// fetch Tyrosine-protein kinase ITK/TSK (Homo sapiens) inhibition for CCOc1ccc2c(-c3ccnc(Nc4cc(OC)cc(C(F)(F)F)c4)n3)cnn2n1
0.24
